- System: H1975 cells
- ASSAY_PROCEDURE: Anti-proliferative activity assay (CellTiter-Glo)
- Format: cell-based, human
- CONDITION_DETAILS: 48 h
pIC50: −log10 of the molar value.
QUANTITY_NAME: pIC50

COMPOUND: CCC[C@H]1CC[C@H](c2ccc(C(=O)NC[C@@H]3[C@@H](O)[C@@H](O)[C@H]4[C@H](O)CCCN43)cc2)CC1
ASSAY_TARGET: H1975 cells
pIC50: 4.94

(I) CCC[C@H]1CC[C@H](c2ccc(NC(=S)NC[C@@H]3[C@@H](O)[C@@H](O)[C@H]4[C@H](O)CCCN43)cc2)CC1
(II) CCCCCC[C@H]1CC[C@H](c2ccc(NC(=S)NC[C@@H]3[C@@H](O)[C@@H](O)[C@H]4[C@H](O)CCCN43)cc2)CC1
Exam item: Which record would sort first by descending pIC50, I or II ? Returns: label corresponding to the selected item.
Marked response: II

* * *

- ASSAY_PROCEDURE: Serum biochemistry assay in Huh7 xenograft mice
- Assay type: in vivo, NOD-SCID mice
- CONDITION_DETAILS: serum, 30 mg/kg i.p., twice a week
QUANTITY_NAME: AST (U/L)
The response must be a number in U/L with no trailing unit.

Study these solved cases before continuing.
COMPOUND: CCC[C@H]1CC[C@H](c2ccc(NC(=S)NC[C@@H]3[C@@H](O)[C@@H](O)[C@H]4[C@H](O)CCCN43)cc2)CC1
MEASURE_UNIT: U/L
AST: 223.42
//
COMPOUND: CCCCCC[C@H]1CC[C@H](c2ccc(NC(=S)NC[C@@H]3[C@@H](O)[C@@H](O)[C@H]4[C@H](O)CCCN43)cc2)CC1
MEASURE_UNIT: U/L
AST: 173.85
//
COMPOUND: CCC[C@H]1CC[C@H](c2ccc(C(=O)NC[C@@H]3[C@@H](O)[C@@H](O)[C@H]4[C@H](O)CCCN43)cc2)CC1
MEASURE_UNIT: U/L
AST: 250

Now for another entry.
Exam item: Would you kindly share the measured AST for CNC(=O)c1cc(Oc2ccc(NC(=O)Nc3ccc(Cl)c(C(F)(F)F)c3)cc2)ccn1 [Sorafenib, sorafenib, reference compound] ?
Marked response: 135.33

* * *

- Tested on: MDA-MB-231 cells
- ASSAY_PROCEDURE: Anti-proliferative activity assay (CellTiter-Glo)
- Format: cell-based, human
- CONDITION_DETAILS: Homo sapiens, MDA-MB-231, 48 h
QUANTITY_NAME: IC50

Exam item: Would you kindly share the measured IC50 for COc1cccc2c1C(=O)c1c(O)c3c(c(O)c1C2=O)C[C@@](O)(C(=O)CO)C[C@@H]3O[C@H]1C[C@H](N)[C@H](O)[C@H](C)O1 [Doxorubicin, doxorubicin, reference compound] ?
Marked response: 1300 to 3000 nM

* * *

- ASSAY_PROCEDURE: Serum biochemistry assay in Huh7 xenograft mice
- Type: in vivo, NOD-SCID mice
- CONDITION_DETAILS: serum, 30 mg/kg i.p., twice a week
QUANTITY_NAME: CRE (mg/dL)

COMPOUND: CCC[C@H]1CC[C@H](c2ccc(NC(=S)NC[C@@H]3[C@@H](O)[C@@H](O)[C@H]4[C@H](O)CCCN43)cc2)CC1 [ACK900]
ASSAY_RESULT: 0.33

COMPOUND: CCC[C@H]1CC[C@H](c2ccc(C(=O)NC[C@@H]3[C@@H](O)[C@@H](O)[C@H]4[C@H](O)CCCN43)cc2)CC1 [ACK902]
ASSAY_RESULT: 0.43

COMPOUND: CNC(=O)c1cc(Oc2ccc(NC(=O)Nc3ccc(Cl)c(C(F)(F)F)c3)cc2)ccn1 [Sorafenib, sorafenib, reference compound]
ASSAY_RESULT: 0.35

COMPOUND: CCCCCC[C@H]1CC[C@H](c2ccc(NC(=S)NC[C@@H]3[C@@H](O)[C@@H](O)[C@H]4[C@H](O)CCCN43)cc2)CC1 [ACK901]
ASSAY_RESULT: 0.47

The values you see were collected from patent US20240190866A1.
